Reference source: paper PMC11476629

target: T1, PSscan255 (synthetic construct, also: biotinylated and pegylated, positions not given here); experiment: BLI
T1 chain: KREWYKFLANKRIAY
No end group written: not given here.
METRIC: pKd
// pKd is dimensionless: -log10 of concentration (M)

Request: Tell me measured pKd for Ship2-Sam Sam (protein) ASGLGEAGMSAWLRAIGLERYEEGLVHNGWDDLEFLSDITEEDLEEAGVQDPAHKRLLLDTLQLSK please.
Result: 4.15
